# EXPERIMENT NOTES: LNP size and polydispersity index (PDI) by dynamic light scattering (Zetasizer)
# Assay type: physicochemical
# STUDY CONDITIONS: Formulation No. 001 (Ionizable lipid:DSPC:cholesterol:DMG-PEG2000 = 50:10:38.5:1.5, N/P 6), RNA No. 331
MEASUREMENT LABEL: Size (nm)
API: value field is a number in nm; no unit string.

Consider the molecule CCCCC/C=C\C/C=C\CCCCCCCCOC(=O)NC(COC(=O)NCCN1CCCCCC1)C(=O)OCCCCCCCC(=O)OC(CCCCCCCC)CCCCCCCC (centres unmarked) and give its measured Size (nm).
63.50

For CCCCC/C=C\C/C=C\CCCCCCCCOC(=O)NC(COC(=O)NCCN1CCCCCC1)C(=O)OCCCCCCCCOC(=O)C(CCCCCC)CCCCCCCC (centres unmarked) then?
61.73

For CCCCCCCCCCCOC(=O)CCCCCOC(=O)C(COC(=O)NCCN1CCCCC1)NC(=O)OCCCCCCCCOC(=O)C(CCCCCC)CCCCCCCC (centres unmarked) then?
81.29

For CCCCCCCCC(CCCCCC)C(=O)OCCCCCCCCOC(=O)NC(COC(=O)NCCN1CCCCCC1)C(=O)OCCCCCCCCCCC(=O)OCCCCCC (centres unmarked) then?
67.82

For CCCCCCCCC(CCCCCCCC)OC(=O)CCCCCCCOC(=O)C(COC(=O)NCCN1CCCCCC1)NC(=O)OCCCCCCCCOC(=O)C(CCCCCC)CCCCCCCC (centres unmarked) then?
60.19

For CCCCCCCCC(CCCCCC)C(=O)OCCCCCCCCOC(=O)NC(COC(=O)NCCN1CCCCC1)C(=O)OCCCCCCCCCCC(=O)OCCCCCC (centres unmarked) then?
75.43

For CCCCCCCCCCC(CCCCCCCC)COC(=O)CCCCCOC(=O)NC(COC(=O)NCCN1CCCCCC1)C(=O)OCCCCCCCC(=O)OC(CCCCCCCC)CCCCCCCC (centres unmarked) then?
52.67

For CCCCCCCCCC(=O)OCCCCCCCOC(=O)C(COC(=O)NCCN1CCCCC1)NC(=O)OCCCCCCCCOC(=O)C(CCCCCC)CCCCCCCC (centres unmarked) then?
75.47
